Target: Y501A HIV-1 RT RNase H (Human immunodeficiency virus type 1 group M subtype B, UniProt P03366, Y1100A)
Construct: Amino acid substitutions were introduced into the p66 HIV-1 RT subunit of a HIV-1 RT; His
Assay: RNase H assay, point-mutant Y501A RT
Property name: IC50

O=C(O)c1cn(Cc2ccc(F)cc2)c2ccc(OCc3cccc4ccccc34)cc2c1=O [4o] ... > 100 µM

Please examine the following record next.
Task item: # return recorded IC50 for input O=C(O)c1cn(Cc2ccc(F)cc2)c2ccc(OCc3ccc(OCc4ccccc4)cc3)cc2c1=O [4t]
Reply: > 100 µM

* * *

Test: Compounds' toxicity, CellTiter 96 AQueous One Solution Cell Proliferation Assay
Type: cell-based
Details: human, HeLa-CD4-LTR-β-gal reporter cells, supplement CSV; read-out: CC50
Property name: CC50 at 24 h

Task item: # return recorded CC50 at 24 h for input O=C(O)c1cn(Cc2ccc(F)cc2)c2ccc(OCc3ccc(OCc4ccccc4)cc3)cc2c1=O [4t]
Reply: > 16 µM

* * *

IC50 overview
Molecular target: HIV-1 RT-associated RNase H activity (Human immunodeficiency virus type 1 group M subtype B, UniProt P03366)
Construct: His-tagged p66/p51 HIV-1 RT group M subtype B; His; made in house; host or cells: Escherichia coli M15
Assay: biochemical
Assay type: biochemical
Settings: RH IC50 (uM), supplement CSV
Output spec: scalar in µM, unitless text.

Would you please look over these solved cases?
CCOC(=O)c1cn(Cc2ccc(F)cc2)c2ccc(OCc3ccc(Cl)c(Cl)c3)cc2c1=O ... 37.2
CCOC(=O)c1cn(Cc2ccc(F)cc2)c2ccc(OCCCCc3ccccc3)cc2c1=O ... 28.4

Task item: # return recorded IC50 for input "O=C(O)c1cn(Cc2ccc(F)cc2)c2ccc(OCc3ccc4ccccc4c3)cc2c1=O"
Reply: 30.3

Task item: # return recorded IC50 for input "O=C(O)c1cn(Cc2ccc(F)cc2)c2ccc(OCc3ccc(Cl)c(Cl)c3)cc2c1=O"
Reply: 29.5

* * *

Target: W535A HIV-1 RT RNase H (Human immunodeficiency virus type 1 group M subtype B, UniProt P03366, W1134A)
Construct: Amino acid substitutions were introduced into the p66 HIV-1 RT subunit of a HIV-1 RT; His
Assay: RNase H assay, point-mutant W535A RT
Property name: IC50

O=C(O)c1cn(Cc2ccc(F)cc2)c2ccc(OCc3ccc(OCc4ccccc4)cc3)cc2c1=O [4t] ... > 100 µM

Please examine the following record next.
Task item: # return recorded IC50 for input O=C(O)c1cn(Cc2ccc(F)cc2)c2ccc(OCc3cccc4ccccc34)cc2c1=O [4o]
Reply: > 100 µM

* * *

Biological target: HIV-1 RT-RDDP activity (Human immunodeficiency virus type 1 group M subtype B, UniProt P03366)
Construct: His-tagged p66/p51 HIV-1 RT group M subtype B; His; made in house; host or cells: Escherichia coli M15
Assay: Polymerase assay (RNA-dependent DNA polymerase)
Assay type: biochemical
log10 IC50 overview
In our notation, the value equals log10 of IC50 in µM.

Would you please look over these solved cases?
O=C(O)c1cn(Cc2ccc(F)cc2)c2ccc(OCc3ccc(Cl)c(Cl)c3)cc2c1=O ... 0.30
O=C(O)c1cn(Cc2ccc(F)cc2)c2ccc(OCc3ccccc3)cc2c1=O ... 1.59
O=C(O)c1cn(Cc2ccc(F)cc2)c2ccc(OCc3ccc4c(c3)OCO4)cc2c1=O ... 0.71
O=C(O)c1cn(Cc2ccc(F)cc2)c2ccc(OCc3cccc4ccccc34)cc2c1=O ... 1.06
O=C(O)c1cn(Cc2ccc(F)cc2)c2ccc(OCc3cccc(Cl)c3Cl)cc2c1=O ... 0.75

Task item: # return recorded log10 IC50 for input "O=C(O)c1cn(Cc2ccc(F)cc2)c2ccc(OCc3ccc(OCc4ccccc4)cc3)cc2c1=O"
Reply: 0.34

Task item: # return recorded log10 IC50 for input "CCOC(=O)c1cn(Cc2ccc(F)cc2)c2ccc(OCc3ccc(Cl)c(Cl)c3)cc2c1=O"
Reply: 1.38

Task item: # return recorded log10 IC50 for input "CCOC(=O)c1cn(Cc2ccc(F)cc2)c2ccc(OCc3cccc(Cl)c3Cl)cc2c1=O"
Reply: 0.27

Task item: # return recorded log10 IC50 for input "O=C(O)c1cn(Cc2ccc(F)cc2)c2ccc(OCc3ccc(-c4ccccc4)cc3)cc2c1=O"
Reply: 1.06

* * *

Target: HIV-1 RT-associated RNase H activity (Human immunodeficiency virus type 1 group M subtype B)
Construct: His-tagged p66/p51 HIV-1 RT group M subtype B; His; made in house; host or cells: Escherichia coli M15
Assay: biochemical
Assay type: biochemical
Conditions: anti-RH activity (IC50 ± SD), HIV-1 RT-associated RNase H activity, dose-response curves, no preincubation
Procedure: (11) and β-thujaplicinol (BTP) used as positive controls. His-tagged p66/p51 HIV-1 RT group M subtype B coded in a p6HRT-prot plasmid was expressed in the Escherichia coli strain M15.[65] Heterodimeric RTs were expressed essentially and purified as described.[66] The HIV-1 RT-associated RNase H activity was measured as described.[68] Briefly, the reaction was carried out in a black 96-well plate in a total volume of 100 μL. […] Data were analyzed as described.[36]
Property name: IC50 (µM)
Output spec: scalar in µM, unitless text.

Would you please look over these solved cases?
O=C(O)c1cn(Cc2ccc(F)cc2)c2ccc(OCc3ccc(OCc4ccccc4)cc3)cc2c1=O ... 7.48
CCOC(=O)c1cn(Cc2ccc(F)cc2)c2ccc(OCc3ccc(Cl)c(Cl)c3)cc2c1=O ... 37.2

Please examine the following record next.
Task item: # return recorded IC50 for input "CS(=O)(=O)c1ccc2c(c1)c(=O)c(C(=O)O)cn2Cc1ccc(F)cc1"
Reply: 100

* * *

Biological target: K451A HIV-1 RT RNase H (Human immunodeficiency virus type 1 group M subtype B, UniProt P03366, K1050A)
Construct: Amino acid substitutions were introduced into the p66 HIV-1 RT subunit of a HIV-1 RT; His
Experiment: RNase H assay, point-mutant K451A RT
Description: An activity curve was performed for all of the enzymes (Figure S1), and a concentration was chosen in the linear dose-response range to perform the enzymatic-inhibition assays. Amino acid substitutions were introduced into the p66 HIV-1 RT subunit of a HIV-1 RT using a QuikChange mutagenesis kit, following the manufacturer’s instructions (Agilent Technologies Inc., Santa Clara, CA). The HIV-1 RT-associated RNase H activity was measured as described.[68] […] Data were analyzed as described.[36]
pIC50 overview
A value of pIC50 is the negative decimal logarithm of a concentration given in moles per litre.

O=C(O)c1cn(Cc2ccc(F)cc2)c2ccc(OCc3ccc(OCc4ccccc4)cc3)cc2c1=O ... 5.54

Please examine the following record next.
Task item: # return recorded pIC50 for input "O=C(O)c1cn(Cc2ccc(F)cc2)c2ccc(OCc3cccc4ccccc34)cc2c1=O"
Reply: 4.93

* * *

Target: K540A HIV-1 RT RNase H (Human immunodeficiency virus type 1 group M subtype B, UniProt P03366, K1139A)
Construct: Amino acid substitutions were introduced into the p66 HIV-1 RT subunit of a HIV-1 RT; His
Assay: RNase H assay, point-mutant K540A RT
Property name: IC50 (µM)
Output spec: scalar in µM, unitless text.

O=C(O)c1cn(Cc2ccc(F)cc2)c2ccc(OCc3ccc(OCc4ccccc4)cc3)cc2c1=O [4t] ... 2

Please examine the following record next.
Task item: # return recorded IC50 for input O=C(O)c1cn(Cc2ccc(F)cc2)c2ccc(OCc3cccc4ccccc34)cc2c1=O [4o]
Reply: 31.6

* * *

Experiment: Compounds' toxicity, CellTiter 96 AQueous One Solution Cell Proliferation Assay
Format: cell-based
Settings: human, HeLa-CD4-LTR-β-gal cells, CC50 (cytotoxic concentration 50%), 24 h
CC50 at 24 h overview
Output spec: scalar in µM, unitless text.

Task item: # return recorded CC50 at 24 h for input "O=C(/C=C/c1ccc2c(c1)c(=O)c(C(=O)O)cn2Cc1ccc(F)cc1)c1ccccc1"
Reply: 17

Task item: # return recorded CC50 at 24 h for input "CCOC(=O)c1cn(Cc2ccc(F)cc2)c2ccc(OCc3ccc4ccccc4c3)cc2c1=O"
Reply: 73

Task item: # return recorded CC50 at 24 h for input CCOC(=O)/C=C/C(=O)/C=C/c1cccn1Cc1ccccc1Cl [compound 11, reference compound]
Reply: 68

Task item: # return recorded CC50 at 24 h for input "O=C(O)c1cn(Cc2ccc(F)cc2)c2ccc(OCc3cccc4ccccc34)cc2c1=O"
Reply: 51

* * *

SI (selectivity index = CC50/EC50) overview
Tested on: HIV-1 replication
Test: HIV-1 replication in HeLa-CD4-LTR-β-gal reporter cells
Type: cell-based
Conditions: CC50/EC50

Task item: # return recorded SI (selectivity index = CC50/EC50) for input "O=C(/C=C/c1ccc2c(c1)c(=O)c(C(=O)O)cn2Cc1ccc(F)cc1)c1ccccc1"
Reply: 3.1

Task item: # return recorded SI (selectivity index = CC50/EC50) for input "O=C(O)c1cn(Cc2ccc(F)cc2)c2ccc(OCc3ccc(OCc4ccccc4)cc3)cc2c1=O"
Reply: >57.8

Task item: # return recorded SI (selectivity index = CC50/EC50) for input "O=C(O)c1cn(Cc2ccc(F)cc2)c2ccc(OCc3ccc(-c4ccccc4)cc3)cc2c1=O"
Reply: >40

Task item: # return recorded SI (selectivity index = CC50/EC50) for input "O=C(O)c1cn(Cc2ccc(F)cc2)c2ccc(OCc3ccc4c(c3)OCO4)cc2c1=O"
Reply: >17.7
